Target: Prostaglandin G/H synthase 2 (Homo sapiens)
Sequence (P35354 whole entry): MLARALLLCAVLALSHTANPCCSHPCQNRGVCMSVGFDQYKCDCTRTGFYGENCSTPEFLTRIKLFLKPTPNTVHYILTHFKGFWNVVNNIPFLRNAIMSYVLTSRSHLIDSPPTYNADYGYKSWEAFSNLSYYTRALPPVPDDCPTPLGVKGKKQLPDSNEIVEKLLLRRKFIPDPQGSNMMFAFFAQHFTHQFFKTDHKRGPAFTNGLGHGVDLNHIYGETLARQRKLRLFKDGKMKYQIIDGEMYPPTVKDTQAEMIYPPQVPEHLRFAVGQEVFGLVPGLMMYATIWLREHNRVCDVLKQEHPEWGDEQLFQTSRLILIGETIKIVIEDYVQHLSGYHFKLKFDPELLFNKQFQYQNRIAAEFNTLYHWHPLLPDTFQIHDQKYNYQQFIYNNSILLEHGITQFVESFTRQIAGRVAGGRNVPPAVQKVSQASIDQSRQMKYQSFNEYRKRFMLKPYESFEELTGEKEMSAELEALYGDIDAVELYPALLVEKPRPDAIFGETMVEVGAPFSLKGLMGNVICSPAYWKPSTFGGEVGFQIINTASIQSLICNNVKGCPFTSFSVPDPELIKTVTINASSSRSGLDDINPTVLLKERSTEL
pIC50: −log10 of the molar value.

# compoundSmiles, targetOfAssay, pIC50
data = [
    ("CCOC(=O)c1c(-c2ccc([N+](=O)[O-])cc2)nc2c(/N=N/c3ccc(O)cc3)c(N)nn2c1C", "Prostaglandin G/H synthase 2 (Homo sapiens)", 7.02),
    ("Nc1nn2c(-c3cccs3)cc(-c3ccc(F)cc3)nc2c1/N=N/c1ccc(O)cc1", "Prostaglandin G/H synthase 2 (Homo sapiens)", 6.59),
    ("CCOC(=O)c1c(-c2ccc(OC)cc2)[nH]c2c(/N=N/c3ccc(O)cc3)c(N)nn2c1=O", "Prostaglandin G/H synthase 2 (Homo sapiens)", 7.16),
    ("CCOC(=O)c1c(-c2ccc(OC)cc2)nc2c(/N=N/c3ccc(O)cc3)c(N)nn2c1C", "Prostaglandin G/H synthase 2 (Homo sapiens)", 7.22),
]

----------
biological target: Prostaglandin G/H synthase 2 (Homo sapiens)
Strictly below 60 nM in IC50: y. Otherwise: n.

# compoundSmiles, answerLabel
data = [
    ("Cc1ccc(-c2cc(-c3cccs3)n3nc(N)c(/N=N/c4ccc(O)cc4)c3n2)cc1", "y"),
    ("Nc1nn2c(-c3cccs3)cc(-c3ccc(Br)cc3)nc2c1/N=N/c1ccc(O)cc1", "n"),
    ("N#Cc1c(-c2ccc(F)cc2)nc2c(/N=N/c3ccc(O)cc3)c(N)nn2c1N", "n"),
    ("CCOC(=O)c1c(-c2ccc([N+](=O)[O-])cc2)[nH]c2c(/N=N/c3ccc(O)cc3)c(N)nn2c1=O", "n"),
]
